Can you tell me composite z-score for the items I'm about to list?
system: XIP peptide (Xip251-270); test: small-molecule binders of XIP peptide, primary screen, biochemical, small-molecule microarray, fluorescence 635/667 nm, 0.5 µg/mL protein (AID 1183); details: small-molecule microarray binding, fluorescence 635 nm; higher = more signal

**Q:** I would be grateful if you could share the reported composite z-score for O=C1CCCC(C2=CCCCC2=O)C1 (stereo not drawn) .
**A:** 0.0997

**Q:** # get_value(readout='composite z-score', item= CC(CCN1CCCc2nc(C)c(C)cc21)=NO[C@@H](C)c1cc(-c2c(C)cc(C)cc2C)no1 )
**A:** 0.567

**Q:** Given the compound C#CCCCON=C1C[C@@H](O)[C@@H](O)[C@@H]2[C@@H]3C(=O)N(C(C)(C)C)C(=O)[C@@H]3CC[C@@H]12 , what is its reported composite z-score?
**A:** 0.109

**Q:** What does the record list as composite z-score for CCOC(=O)[C@H](Cc1ccccc1)NC(=O)CCC1CC(OC(=O)NCc2cccc3ccccc23)CC2(CCCC(COC(=O)NCc3cccc(C(F)(F)F)c3)O2)O1 (stereo partly drawn) ?
**A:** 0.335

**Q:** Quick one: composite z-score of CC(C)CON=C1[C@H]2CCn3c(=O)n(Cc4cc5c(cc4Cl)OCO5)c(=O)n3[C@H]2[C@H](O)[C@@H]2O[C@H]12 ?
**A:** 0.368

**Q:** What measured composite z-score goes with COCCNC(=O)OCC1CCCC2(CC(OC(=O)NCc3ccc4c(c3)OCO4)CC(CCC(=O)N[C@@H](C)C(=O)OC)O2)O1 (stereo partly drawn) ?
**A:** 0.623

**Q:** For the compound shown here, COC(=O)CC=C[C@@H](C)[C@@H](C=NO[C@@H](C)c1cn([C@H](CO)Cc2ccccc2)nn1)NS(=O)(=O)c1ccc(C)cc1 , give the reported composite z-score.
**A:** 0.464

**Q:** If you can, please state the reported composite z-score value of Cc1cc2c(nc1C)CCCCN2CC(C)ON=C[C@@H](C)[C@H](OCc1ccccc1)C(C)C (stereo partly drawn) .
**A:** -0.0948

----------
target: Torsin-1A-interacting protein 1 (Homo sapiens); experiment: LAP1 binders from COS7 cell lysate, primary screen, small-molecule microarray, 635/667 nm fluorescence (AID 1116); settings: COS7-hLAP1 lysate binding, 635 nm fluorescence, higher = more signal
I'd be grateful if you could share measured composite z-score for these entries.

**Q:** Quick check: composite z-score on Torsin-1A-interacting protein 1 (Homo sapiens), item O=C1[C@H]2[C@H]3[C@H](O)[C@H](O)CC(=NOCc4ccccc4)[C@@H]3CC[C@H]2C(=O)N1c1ccc(F)cc1F ?
**A:** 0.0133

**Q:** composite z-score of CO[C@H]1COC(=O)[C@@H](C)COC(=O)[C@@H](OCc2ccccc2)C=C[C@@H]1C on Torsin-1A-interacting protein 1 (Homo sapiens)?
**A:** -0.0153

**Q:** Entry CCOC(=O)NN=C1C[C@@H](O)[C@@H](O)[C@@H]2[C@@H]3C(=O)N(C(C)(C)C)C(=O)[C@@H]3CC[C@H]12 , system Torsin-1A-interacting protein 1 (Homo sapiens): what composite z-score was measured?
**A:** 0.0059

**Q:** What is its composite z-score for Torsin-1A-interacting protein 1 (Homo sapiens)? Entry: CO[C@H]1COC(=O)CC=C[C@@H](C)[C@H](NS(=O)(=O)c2ccc(C)cc2)COC(=O)CCC[C@@H]1C
**A:** 0.784

**Q:** Form field - read-out: composite z-score; system: Torsin-1A-interacting protein 1 (Homo sapiens); submitted item: O=C1CCCC=C1C(O)CCCCBr (stereo unspecified)
**A:** 0.293

**Q:** Entry COc1cccc([C@H]2Oc3ccc(OC)cc3C(=NOC[C@@H](O)[C@H]3O[C@@H]4OC(C)(C)O[C@@H]4[C@H]3O)[C@@H]2O)c1 , system Torsin-1A-interacting protein 1 (Homo sapiens): what composite z-score was measured?
**A:** 0.64

**Q:** Hello, I am looking for reported composite z-score with Torsin-1A-interacting protein 1 (Homo sapiens) for CCN1C(=O)[C@H]2[C@H]3[C@H](O)[C@H](O)CC(=NOCC(C)C)[C@@H]3CC[C@H]2C1=O . Could you help?
**A:** 0.317

**Q:** Request: composite z-score, test system Torsin-1A-interacting protein 1 (Homo sapiens), entry C[C@H]1CC[C@H]2C(=O)OC(CO)CN2[C@@H]1c1ccc(Br)cc1 (stereo partly specified)
**A:** -0.303

**Q:** I'm curious: which composite z-score was measured for CC(C)CON=C1C[C@@H](O)[C@@H](O)[C@@H]2[C@@H]3C(=O)N(C4CCCCC4)C(=O)[C@@H]3CC[C@@H]12 tested on Torsin-1A-interacting protein 1 (Homo sapiens)?
**A:** 0.136

**Q:** Lab note: need composite z-score with Torsin-1A-interacting protein 1 (Homo sapiens) for entry COC(=O)[C@@H]1CC[C@H](C)[C@@H](c2ccc(C)cc2)N1C(=O)c1ccc(C=NO[C@H](C)c2cn([C@H](CO)Cc3ccccc3)nn2)cc1 , please look it up.
**A:** 0.462

**Q:** Test system Torsin-1A-interacting protein 1 (Homo sapiens); read-out composite z-score; what value for CO[C@H](C1CCCCC1)[C@H](C)C=CCC(=O)OCCCc1ccccc1 ?
**A:** 0.099

**Q:** Requested read-out composite z-score, target or system Torsin-1A-interacting protein 1 (Homo sapiens), entry COc1cccc([C@H]2Oc3ccc(OC)cc3C(=NOC[C@@H](O)COCc3ccco3)[C@@H]2O)c1
**A:** -0.889

**Q:** Look up composite z-score with Torsin-1A-interacting protein 1 (Homo sapiens) for this compound: COc1ccc(COC(=O)NN=C2C[C@@H](O)[C@@H](O)[C@@H]3[C@@H]4C(=O)N(c5ccc(F)cc5F)C(=O)[C@@H]4CC[C@H]23)cc1
**A:** -0.724

**Q:** Notebook entry, Torsin-1A-interacting protein 1 (Homo sapiens) assay: composite z-score of C=CC[C@@H]1C=C[C@H](ON=C2[C@H]3CCn4c(=O)n(-c5ccccc5)c(=O)n4[C@H]3[C@H](O)[C@@H]3O[C@H]23)[C@@H](CO)O1 = ?
**A:** 0.16

**Q:** Recorded composite z-score for C[C@@H](ON=C1[C@H]2CCn3c(=O)n(-c4ccccc4)c(=O)n3[C@H]2[C@H](O)[C@@H]2O[C@H]12)c1cn([C@@H]2COC[C@H]2O)nn1 with Torsin-1A-interacting protein 1 (Homo sapiens), please?
**A:** 0.07

**Q:** Record COC(=O)NCC=Cc1nc(CCCO)co1 : what is its composite z-score with Torsin-1A-interacting protein 1 (Homo sapiens)?
**A:** 0.116
